Molecular target: human GR (Homo sapiens)
Experiment: Transrepression Assay (GITAR), TNFα-β-lactamase reporter in U937 cells
Assay type: cell-based
Parameters: U937 cells contain an endogenous glucocorticoid receptor (GR); endogenous in cells; host or cells: U937 cells stably transfected with the TNF-alpha promoter/beta-lactamase reporter
Settings: U-937, U937 cells; maximum activity; read-out: Transrepression U937 Cells GITAR Emax
Excerpt: This assay assesses the ability of test compounds to control transcription from the TNFα-β-lactamase reporter gene in U937 cells, a human myelomonocytic leukemia cell line that naturally expresses the human GR. The assay measures compound dependent-repression of the TNFa promoter linked to a reporter gene. The human U937 cells that had been stablely transfected with the TNF-α promoter driving β-lactamase are used for this assay. U937 cells contain an endogenous glucocorticoid receptor (GR). […]
READOUT TYPE: Emax (%)
Answer with a number only, understood to be in %.

COMPOUND	TESTED TARGET	READOUT TYPE	MEASUREMENT
C[C@]12Cc3cnn(-c4ccc(F)cc4)c3C=C1CC[C@@H]2CN(CCO)S(=O)(=O)Cc1cccc(C(F)(F)F)c1	human GR (Homo sapiens)	Emax	12
C[C@]12Cc3cnn(-c4ccc(F)cc4)c3C=C1CC[C@@H]2CN(CCc1ccncc1)S(=O)(=O)CC(F)(F)F	human GR (Homo sapiens)	Emax	79.1
C[C@]12Cc3cnn(-c4ccc(F)cc4)c3C=C1CC[C@@H]2CN(CCO)S(=O)(=O)c1ccccc1F	human GR (Homo sapiens)	Emax	82.1
C[C@]12Cc3cnn(-c4ccc(F)cc4)c3C=C1CC[C@@H]2CN(CC(O)C(F)F)S(=O)(=O)CC(F)(F)F (some centres unmarked)	human GR (Homo sapiens)	Emax	95.9
COC(=O)c1ccccc1S(=O)(=O)N(CCc1ccccc1F)C[C@H]1CCC2=Cc3c(cnn3-c3ccc(F)cc3)C[C@@]21C	human GR (Homo sapiens)	Emax	81

Ask: Reported Emax for C[C@]12Cc3cnn(-c4ccc(F)cc4)c3C=C1CC[C@@H]2CN(CCc1ccccn1)S(=O)(=O)CCN1C(=O)c2ccccc2C1=O : what is it?
Reply: 23

Ask: Reported Emax for COC(=O)c1ccccc1S(=O)(=O)N(CCO)C[C@H]1CCC2=Cc3c(cnn3-c3ccc(F)cc3)C[C@@]21C : what is it?
Reply: 81.4

Ask: Reported Emax for CC(C)(O)CN(C[C@H]1CCC2=Cc3c(cnn3-c3ccc(F)cc3)C[C@@]21C)S(=O)(=O)c1ccccc1F : what is it?
Reply: 80.8

Ask: Reported Emax for C=CCN(C[C@H]1CCC2=Cc3c(cnn3-c3ccc(F)cc3)C[C@@]21C)S(=O)(=O)c1ccccc1F : what is it?
Reply: 65.1

Ask: Reported Emax for C[C@]12Cc3cnn(-c4ccc(F)cc4)c3C=C1CC[C@@H]2CN(CCc1ccccn1)S(=O)(=O)Cc1ccccc1C(N)=O : what is it?
Reply: 40.3

Ask: Reported Emax for C[C@]12Cc3cnn(-c4ccc(F)cc4)c3C=C1CC[C@@H]2CN(CCO)S(=O)(=O)c1ccccc1-c1ccccc1 : what is it?
Reply: 86

Ask: Reported Emax for C[C@]12Cc3cnn(-c4ccc(F)cc4)c3C=C1CC[C@@H]2CN(CC#N)S(=O)(=O)c1ccc(C#N)cc1 : what is it?
Reply: 78.8

Ask: Reported Emax for Cc1ccc(S(=O)(=O)N(CC#N)C[C@H]2CCC3=Cc4c(cnn4-c4ccc(F)cc4)C[C@@]32C)s1 : what is it?
Reply: 54.8

Ask: Reported Emax for Cc1ccc(S(=O)(=O)N(CCO)C[C@H]2CCC3=Cc4c(cnn4-c4ccc(F)cc4)C[C@@]32C)s1 : what is it?
Reply: 29

Ask: Reported Emax for C[C@]12Cc3cnn(-c4ccc(F)cc4)c3C=C1CC[C@@H]2CN(CC(O)C(F)(F)F)S(=O)(=O)Cc1ccccc1C(N)=O (some centres unmarked) : what is it?
Reply: 87.4

Ask: Reported Emax for C[C@]12Cc3cnn(-c4ccc(F)cc4)c3C=C1CC[C@@H]2CN(CC#N)S(=O)(=O)c1ccc(-c2ccccc2)cc1 : what is it?
Reply: 19.2

Ask: Reported Emax for COCCN(C[C@H]1CCC2=Cc3c(cnn3-c3ccc(F)cc3)C[C@@]21C)S(=O)(=O)c1ccccc1F : what is it?
Reply: 75.5

----------
Biological target: human GR (Homo sapiens, UniProt P04150)
Sequence (P04150 1-777): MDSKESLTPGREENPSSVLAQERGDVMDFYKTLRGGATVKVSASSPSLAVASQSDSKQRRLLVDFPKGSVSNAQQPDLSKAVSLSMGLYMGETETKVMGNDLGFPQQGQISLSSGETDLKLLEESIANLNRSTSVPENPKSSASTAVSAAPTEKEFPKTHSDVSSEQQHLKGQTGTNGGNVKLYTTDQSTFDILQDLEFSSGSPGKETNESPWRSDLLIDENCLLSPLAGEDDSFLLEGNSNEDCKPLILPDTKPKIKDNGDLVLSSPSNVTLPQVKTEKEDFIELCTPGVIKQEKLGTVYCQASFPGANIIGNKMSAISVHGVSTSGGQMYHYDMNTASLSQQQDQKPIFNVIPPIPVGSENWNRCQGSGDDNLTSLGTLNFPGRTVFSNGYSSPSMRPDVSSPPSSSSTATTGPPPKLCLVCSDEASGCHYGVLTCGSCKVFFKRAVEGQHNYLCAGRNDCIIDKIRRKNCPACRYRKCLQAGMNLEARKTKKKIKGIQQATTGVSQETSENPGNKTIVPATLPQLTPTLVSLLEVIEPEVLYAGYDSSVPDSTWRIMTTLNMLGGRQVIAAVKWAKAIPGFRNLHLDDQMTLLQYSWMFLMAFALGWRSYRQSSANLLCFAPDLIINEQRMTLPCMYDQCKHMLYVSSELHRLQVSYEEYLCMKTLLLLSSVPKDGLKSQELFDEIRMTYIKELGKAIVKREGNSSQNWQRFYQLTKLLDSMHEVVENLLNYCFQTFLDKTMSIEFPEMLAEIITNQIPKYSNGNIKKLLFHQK
Experiment: Transrepression Assay (GITAR), TNFα-β-lactamase reporter in U937 cells
Assay type: cell-based
Parameters: U937 cells contain an endogenous glucocorticoid receptor (GR); endogenous in cells; host or cells: U937 cells stably transfected with the TNF-alpha promoter/beta-lactamase reporter
Conditions: GITAR Emax minus GRAMMER Emax
Each entry below carries its reported GITAR > GRAMM % SEP.
Answer with a number only, understood to be in %.

Worked set:
COMPOUND	U	MEASUREMENT
CCS(=O)(=O)N(CC1CCCO1)C[C@H]1CCC2=Cc3c(cnn3-c3ccc(F)cc3)C[C@@]21C (some centres unmarked) [Example 174]	%	4.2
C[C@]12Cc3cnn(-c4ccc(F)cc4)c3C=C1CC[C@@H]2CN(CCC(N)C(F)(F)F)S(=O)(=O)CC(F)(F)F (some centres unmarked) [Example 147]	%	0.3
CCCCS(=O)(=O)N(CCc1ccccc1F)C[C@H]1CCC2=Cc3c(cnn3-c3ccc(F)cc3)C[C@@]21C [Example 102]	%	8.2
C[C@]12Cc3cnn(-c4ccc(F)cc4)c3C=C1CC[C@@H]2CN(CC1CC1)S(=O)(=O)c1ccccc1C(F)(F)F [Example 4]	%	36.2
C[C@]12Cc3cnn(-c4ccc(F)cc4)c3C=C1CC[C@@H]2CN(CC#N)S(=O)(=O)c1ccc(C#N)cc1 [Example 28]	%	34.8

Ask: Reported GITAR > GRAMM % SEP for C[C@]12Cc3cnn(-c4ccc(F)cc4)c3C=C1CC[C@@H]2CN(CCc1ccccc1F)S(=O)(=O)Cc1ccccc1C(F)(F)F [Example 108] : what is it?
Reply: 24.6

Ask: Reported GITAR > GRAMM % SEP for C[C@]12Cc3cnn(-c4ccc(F)cc4)c3C=C1CC[C@@H]2CN(CC#N)S(=O)(=O)c1ccccc1Cl [Example 50] : what is it?
Reply: 46.2

Ask: Reported GITAR > GRAMM % SEP for C[C@]12Cc3cnn(-c4ccc(F)cc4)c3C=C1CC[C@@H]2CN(CCO)S(=O)(=O)c1ccccc1C#N [Example 78] : what is it?
Reply: 15.9

Ask: Reported GITAR > GRAMM % SEP for C[C@]12Cc3cnn(-c4ccc(F)cc4)c3C=C1CC[C@@H]2CN(CCc1ccccc1F)S(=O)(=O)Cc1cccc(C(F)(F)F)c1 [Example 88] : what is it?
Reply: 32.4

Ask: Reported GITAR > GRAMM % SEP for COc1ccccc1CCN(C[C@H]1CCC2=Cc3c(cnn3-c3ccc(F)cc3)C[C@@]21C)S(=O)(=O)c1ccccc1F [Example 90] : what is it?
Reply: 34.0

----------
target: human GR (Homo sapiens); test: Trans-Activation Modulation of Glucocorticoid Receptor (GRAMMER), MMTV-LUC reporter, agonist mode; type: cell-based; set-up: endogenous in cells; settings: A549 cells; inflection point; read-out: Transactivation A549 Cells GRAMMER IP
Each entry below carries its reported pEC50.
In plain terms, pEC50 is the concentration in mol/L turned into minus its base-10 logarithm.

Worked set:
COMPOUND	TESTED TARGET	pEC50
C[C@]12Cc3cnn(-c4ccc(F)cc4)c3C=C1CC[C@@H]2CN(CCc1ccccn1)S(=O)(=O)Cc1ccccc1C(N)=O [Example 196]	human GR (Homo sapiens)	6.26
COC(=O)c1ccccc1S(=O)(=O)N(CC1CC1)C[C@H]1CCC2=Cc3c(cnn3-c3ccc(F)cc3)C[C@@]21C [Example 18]	human GR (Homo sapiens)	6.40
CCN(C[C@H]1CCC2=Cc3c(cnn3-c3ccc(F)cc3)C[C@@]21C)S(=O)(=O)c1c(C)noc1C [Example 178]	human GR (Homo sapiens)	6.96
C[C@]12Cc3cnn(-c4ccc(F)cc4)c3C=C1CC[C@@H]2CN(CCc1ccccc1F)S(=O)(=O)c1ccccc1C(F)(F)F [Example 99]	human GR (Homo sapiens)	6.63
CCS(=O)(=O)N(CCOC)C[C@H]1CCC2=Cc3c(cnn3-c3ccc(F)cc3)C[C@@]21C [Example 171]	human GR (Homo sapiens)	6.54

Ask: Reported pEC50 for COC(=O)c1ccccc1CS(=O)(=O)N(C[C@H]1CCC2=Cc3c(cnn3-c3ccc(F)cc3)C[C@@]21C)C[C@H](C)O [Example 181] : what is it?
Reply: 6.44

Ask: Reported pEC50 for C[C@]12Cc3cnn(-c4ccc(F)cc4)c3C=C1CC[C@@H]2CN(CC(O)c1cccnc1)S(=O)(=O)CC(F)(F)F (stereo partly shown) [Example 143] : what is it?
Reply: 6.60

Values from patent US8299048B2
